Target: hA2BAR (Homo sapiens, UniProt P29275)
Construct: host or cells: HEK-293 (HEK-293-A2B) cell membranes
Sequence (P29275 whole entry): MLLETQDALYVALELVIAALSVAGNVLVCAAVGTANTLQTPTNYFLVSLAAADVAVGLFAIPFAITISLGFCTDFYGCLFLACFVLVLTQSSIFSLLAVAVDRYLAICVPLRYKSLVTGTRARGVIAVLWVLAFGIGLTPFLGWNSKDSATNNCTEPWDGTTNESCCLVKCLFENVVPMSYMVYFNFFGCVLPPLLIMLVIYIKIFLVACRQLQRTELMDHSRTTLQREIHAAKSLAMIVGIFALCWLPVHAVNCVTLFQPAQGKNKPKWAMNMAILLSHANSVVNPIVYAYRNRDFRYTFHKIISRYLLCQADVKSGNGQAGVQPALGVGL
Experiment: Radioligand binding competition, [3H]DPCPX, membranes from HEK-293-A2B cells
Settings: displacement of specific [3H]DPCPX binding in human HEK-293 cells, n = 3; read-out: Ki hA2B
PROPERTY: Ki (nM)
Output spec: scalar in nM, unitless text.

The following compounds have reported results that may help.
[[record]]
compound = "CCOC(=O)C1=C(C)Nc2nc3cc(F)ccc3n2C1c1ccsc1 (stereo not drawn) [16g]"
assayed_system = "hA2BAR (Homo sapiens, UniProt P29275)"
observed_result = 187

[[record]]
compound = "CCOC(=O)C1=C(C)Nc2nc3cc(F)ccc3n2C1c1ccco1 (stereo not drawn) [16a]"
assayed_system = "hA2BAR (Homo sapiens, UniProt P29275)"
observed_result = 6.6

[[record]]
compound = "CC1=C(C(=O)OC(C)C)C(c2cocn2)n2c(nc3ccc(F)cc32)N1 (stereo not drawn) [17b]"
assayed_system = "hA2BAR (Homo sapiens, UniProt P29275)"
observed_result = 7.6

[[record]]
compound = "CCOC(=O)C1=C(C)Nc2nc3ccc(Br)cc3n2C1c1ccoc1 (stereo not drawn) [15s]"
assayed_system = "hA2BAR (Homo sapiens, UniProt P29275)"
observed_result = 318

[[record]]
compound = "CC1=C(C(=O)OC(C)C)C(c2ccoc2)n2c(nc3cc(Br)ccc32)N1 (stereo not drawn) [16t]"
assayed_system = "hA2BAR (Homo sapiens, UniProt P29275)"
observed_result = 8.2


Documented Ki of CC1=C(C(=O)OC(C)C)C(c2ccco2)n2c(nc3cc(Cl)ccc32)N1 (stereo not drawn) [16j] : 5.03

Documented Ki of CC1=C(C(=O)OC(C)C)C(c2ccco2)n2c(nc3ccc(Cl)cc32)N1 (stereo not drawn) [15j] : 44.3

Documented Ki of CC1=C(C(=O)OC(C)C)C(c2cocn2)n2c(nc3ccc(Cl)cc32)N1 (stereo not drawn) [17d] : 102

Documented Ki of CCOC(=O)C1=C(C)Nc2nc3cc(F)ccc3n2C1c1ccoc1 (stereo not drawn) [16c] : 13.7

Documented Ki of CCOC(=O)C1=C(C)Nc2nc3cc(Br)ccc3n2[C@@H]1c1ccoc1 [(R)-16s] : 1.17
